Where these numbers come from: paper PMC12102759

Kindly state screen value for each of the entries shown.
B1: MBOAT1 peptide 17-32 (Lysophospholipid acyltransferase 1), 16-mer library wild type / NSP3 ADRP (ORF1ab Nsp3b ADRP, residues 1023-1192) (parent)
chain 1: STYLHPLSELLGIPLD
chain 2: not shown

Variants of: B1
EXPERIMENTAL SETUP: with NSP3 ADRP (ORF1ab Nsp3b ADRP, residues 1023-1192); bait immobilised on MaxiSorp plates (10 µg), library pre-cleared on GST, 2 h binding at 4 °C, five washes; one round per day, days 1-4; value from days 2 and 3; keep out of graded; scale: average fractional NGS count over selection days 2 and 3
The reply should be a number, written without any unit.

input: Tell me screen value reported for chain 1 Y3F
output: 0

input: Tell me screen value reported for chain 1 S1D
output: 0.000236

input: Tell me screen value reported for chain 1 G12P
output: 5.99e-05

input: Tell me screen value reported for chain 1 L15W
output: 8.57e-05

input: Tell me screen value reported for chain 1 S1P
output: 0.000375

input: Tell me screen value reported for chain 1 P14T
output: 0.000186

input: Tell me screen value reported for chain 1 I13Y
output: 0.00165

input: Tell me screen value reported for chain 1 I13A
output: 5.81e-05

input: Tell me screen value reported for chain 1 S1N
output: 0.000536
